target: recombinant human GST-Syk (Homo sapiens (Human)); assay: Homogeneous Time-Resolved Fluorescence (HTRF) assay for the recombinant human Syk enzyme; assay type: biochemical; details: recombinant human GST-Syk 5 pM, ATP 25 μM; class symbols; read-out: rhSyk activity (IC50)
pIC50: −log10 of the molar value.

- compound: "Cc1cc(Nc2cc(C(F)(F)F)ccn2)nc(-c2cnc(C(C)(O)C3CCC(C(=O)O)C(C)C3)s2)c1 (single isomer, unassigned) [Example 15-7]"
  pIC50: "≥ 7.00"
- compound: "CC(O)(c1ncc(-c2cc(C(F)F)cc(Nc3cc(C(F)(F)F)ccn3)n2)s1)[C@H]1CC[C@H](C(=O)O)CC1 (single isomer, unassigned)"
  pIC50: "≥ 7.00"
- compound: "Cc1cc(Nc2cc(C(F)(F)F)ccn2)nc(-c2cnc(C(O)([C@H]3CC[C@H](C(=O)O)CC3)C(F)(F)F)s2)c1 (single isomer, unassigned) [Example 14-19]"
  pIC50: "≥ 7.00"

----------
target: recombinant human GST-Syk (Homo sapiens (Human), UniProt P43405); assay: Homogeneous Time-Resolved Fluorescence (HTRF) assay for the recombinant human Syk enzyme; assay type: biochemical; details: recombinant human GST-Syk 5 pM, ATP 25 μM, 10-dose titration; read-out: rhSyk (nM) IC50

- compound: "CCCCOC(=O)[C@H]1CC[C@H]([C@@](C)(O)c2ncc(-c3cc(C)cc(Nc4cc(C)c(F)cn4)n3)s2)CC1 (single isomer, unassigned) [Example 9, Enantiomer 1]"
  IC50 [nM]: 278
- compound: "Cc1cc(Nc2cc(C(F)(F)F)ccn2)nc(-c2cnc(C(O)[C@H]3CC[C@H](C(=O)O)CC3)s2)c1 (single isomer, unassigned) [Example 14-28]"
  IC50 [nM]: 1.1
- compound: "CC1(C)C[C@@H](C(C)(O)c2ncc(-c3cccc(Nc4cc(C(F)F)ccn4)n3)s2)CC[C@@H]1C(=O)O (stereo partly drawn) [Example 14-50]"
  IC50 [nM]: 6

----------
target: recombinant human GST-Syk (Homo sapiens (Human)); assay: Homogeneous Time-Resolved Fluorescence (HTRF) assay for the recombinant human Syk enzyme; assay type: biochemical; conditions: recombinant human GST-Syk 5 pM, ATP 25 μM; class symbols; read-out: rhSyk activity (IC50)
// reported IC50 for each item listed
measureName: IC50

- compound: "COc1ccnc(Nc2cccc(-c3cnc(C(C)(O)[C@H]4CC[C@H](C(=O)O)CC4)s3)n2)c1 (relative stereo)"
  targetDesc: "recombinant human GST-Syk (Homo sapiens (Human))"
  result: "≤ 100 nM"
- compound: "Cc1cc(Nc2cc(C(F)(F)F)ccn2)nc(-c2cnc(C(C)(O)C3CCC(C(=O)O)C(C)C3)s2)c1 (stereo not drawn) [Example 15-14]"
  targetDesc: "recombinant human GST-Syk (Homo sapiens (Human))"
  result: "≤ 100 nM"
- compound: "Cc1cc(Nc2cc(C(F)(F)F)ccn2)nc(-c2cnc(C(C)(O)C3CCC(C(=O)O)C(C)C3)s2)c1 (single isomer, unassigned) [Example 15-10]"
  targetDesc: "recombinant human GST-Syk (Homo sapiens (Human))"
  result: "≤ 100 nM"

----------
// reported IC50 for each item listed
molecular target: recombinant human GST-Syk (Homo sapiens (Human), UniProt P43405); test: Homogeneous Time-Resolved Fluorescence (HTRF) assay for the recombinant human Syk enzyme; type: biochemical; conditions: recombinant human GST-Syk 5 pM, ATP 25 μM; class symbols; read-out: rhSyk activity (IC50)
measureName: IC50

- compound: "CCCCOC(=O)[C@H]1CC[C@H]([C@@](C)(O)c2ncc(-c3cc(C)cc(Nc4cc(C)c(F)cn4)n3)s2)CC1 (single isomer, unassigned) [Example 9, Enantiomer 2]"
  result: "100 to 1000 nM"
- compound: "COc1ccnc(Nc2cc(C)cc(-c3cnc(C(C)(O)[C@H]4CC[C@H](C(=O)O)C(C)(C)C4)s3)n2)c1 (some centres unmarked) [Example 14-36]"
  result: "≤ 100 nM"
- compound: "CC(O)(c1ncc(-c2cc(Cl)cc(Nc3cc(C(F)(F)F)ccn3)n2)s1)[C@H]1CC[C@H](C(=O)O)CC1 (single isomer, unassigned)"
  result: "≤ 100 nM"
- compound: "CCCCOC(=O)[C@H]1CC[C@H](C(C)(O)c2ncc(-c3cc(C)cc(Nc4cc(C(F)(F)F)ccn4)n3)s2)CC1 (single isomer, unassigned)"
  result: "100 to 1000 nM"
- compound: "Cc1cc(Nc2cc(C(F)(F)F)ccn2)nc(-c2cnc(C(C)(O)C3CCC(C(=O)O)C(C)C3)s2)c1 (single isomer, unassigned) [Example 15-9]"
  result: "≤ 100 nM"

----------
molecular target: recombinant human GST-Syk (Homo sapiens (Human), UniProt P43405); assay: Homogeneous Time-Resolved Fluorescence (HTRF) assay for the recombinant human Syk enzyme; type: biochemical; settings: recombinant human GST-Syk 5 pM, ATP 25 μM, 10-dose titration; read-out: rhSyk (nM) IC50
// reported IC50 for each item listed

- molecule: "CCC(O)(c1ncc(-c2cc(C)cc(Nc3cc(C4CC4)ccn3)n2)s1)[C@H]1CC[C@H](C(=O)O)CC1 (single isomer, unassigned) [Example 1, Enantiomer 1]"
  measurementUnit: "nM"
  IC50: 2.9
- molecule: "Cc1cc(Nc2cc(C(F)F)ccn2)nc(-c2cnc(C(C)(O)[C@H]3CC[C@H](C(=O)O)CC3)s2)c1 (single isomer, unassigned) [Example 14-4]"
  measurementUnit: "nM"
  IC50: 0.5
- molecule: "CCC(O)(c1ncc(-c2cc(C)cc(Nc3cc(C4CC4)ccn3)n2)s1)[C@H]1CC[C@H](C(N)=O)CC1 (mixture of isomers) [Example 2, racemic mixture]"
  measurementUnit: "nM"
  IC50: 3.1

----------
// reported IC50 for each item listed
molecular target: recombinant human GST-Syk (Homo sapiens (Human), UniProt P43405); assay: Homogeneous Time-Resolved Fluorescence (HTRF) assay for the recombinant human Syk enzyme; type: biochemical; details: recombinant human GST-Syk 5 pM, ATP 25 μM; class symbols; read-out: rhSyk activity (IC50)
measureName: IC50

- molecule: "Cc1cc(Nc2cc(C(F)(F)F)ccn2)nc(-c2cnc(C(C)(O)C3CCC(C(=O)O)C(C)C3)s2)c1 (single isomer, unassigned) [Example 15-12]"
  result: "≤ 100 nM"
- molecule: "Cc1cc(Nc2cc(C(F)(F)F)ccn2)nc(-c2cnc(C(C)(O)C3CCC(C(=O)O)C(C)C3)s2)c1 (stereo not drawn) [Example 15-17]"
  result: "≤ 100 nM"
- molecule: "Cc1cc(Nc2cc(C(F)(F)F)ccn2)nc(-c2cnc([C@@](C)(O)[C@H]3CNC(=O)C3)s2)c1"
  result: "≤ 100 nM"
- molecule: "CC(C)c1ccnc(Nc2cccc(-c3cnc(C(C)(O)[C@H]4CC[C@H](C(=O)O)CC4)s3)n2)c1 (relative stereo)"
  result: "≤ 100 nM"
- molecule: "Cc1cc(Nc2cc(C(F)(F)F)ccn2)nc(-c2cnc(C(C)(O)C3CCC(C(=O)O)C(C)C3)s2)c1 (single isomer, unassigned) [Example 15-4]"
  result: "≤ 100 nM"
- molecule: "CC(O)(c1ncc(-c2cccc(Nc3cc(C(F)(F)F)ccn3)n2)s1)[C@H]1CC[C@H](C(=O)O)CC1 (single isomer, unassigned) [Example 7]"
  result: "≤ 100 nM"
- molecule: "COC(=O)[C@H]1CC[C@H](C(O)c2ncc(-c3cc(C)cc(Nc4cc(C(F)(F)F)ccn4)n3)s2)CC1 (relative stereo)"
  result: "≤ 100 nM"
- molecule: "Cc1cc(Nc2cc(C(F)F)ccn2)nc(-c2cnc(C(C)(O)[C@H]3CC[C@H](C(=O)O)C(C)(C)C3)s2)c1 (stereo partly drawn) [Example 14-37]"
  result: "≤ 100 nM"
- molecule: "CCCCOC(=O)[C@H]1CC[C@H](C(C)(O)c2ncc(-c3cc(C)cc(Nc4cc(C5CC5)ccn4)n3)s2)CC1 (relative stereo)"
  result: "100 to 1000 nM"
- molecule: "CCC(O)(c1ncc(-c2cc(C)cc(Nc3cc(C4CC4)ccn3)n2)s1)[C@H]1CC[C@H](C(N)=O)CC1 (mixture of isomers) [Example 2, racemic mixture]"
  result: "≤ 100 nM"
- molecule: "Cc1cc(Nc2cc(C(F)(F)F)ccn2)nc(-c2cnc(C(C)(O)C3CCC(C(=O)O)C(C)C3)s2)c1 (single isomer, unassigned) [Example 15-3]"
  result: "≤ 100 nM"
- molecule: "Cc1cc(Nc2cc(C(F)(F)F)ccn2)nc(-c2cnc(C(C)(O)C3CCC(C(=O)O)C(C)C3)s2)c1 (single isomer, unassigned) [Example 15-1]"
  result: "≤ 100 nM"
